# System: Botrytis cinerea (B05.10)
# experimental-protocol: Resazurin antifungal assay of 180 alpha-factor peptide variants towards Botrytis (Example 2)
# Format: cell-based
# conditions: % inhibition of fungal growth, Botrytis conidia, peptide 20 μM, resazurin
Peptide text beside a SMILES is read from it.
Known Inhibition at 20 μM of a selection of compounds
quantity-kind: Inhibition at 20 μM (%)

* CSCC[C@H](NC(=O)[C@@H]1CCCN1C(=O)[C@H](CCC(N)=O)NC(=O)CNC(=O)[C@H](CCCNC(=N)N)NC(=O)[C@H](CCCCN)NC(=O)[C@H](CC(C)C)NC(=O)[C@H](CCCCN)NC(=O)[C@H](CC(C)C)NC(=O)[C@H](CO)NC(=O)[C@H](Cc1c[nH]cn1)NC(=O)[C@@H](N)Cc1c[nH]c2ccccc12)C(=O)N[C@@H](Cc1ccc(O)cc1)C(=O)O [compound 56] (H-WHSLKLKRGQPMY-OH; N-terminus and C-terminus assumed) | 99.84
* CSCC[C@H](NC(=O)[C@@H]1CCCN1C(=O)[C@H](CCC(N)=O)NC(=O)CNC(=O)[C@@H]1CCCN1C(=O)[C@H](CCCCN)NC(=O)[C@H](CC(C)C)NC(=O)[C@H](CCCNC(=N)N)NC(=O)[C@H](CC(C)C)NC(=O)[C@@H](NC(=O)[C@H](Cc1c[nH]cn1)NC(=O)[C@@H](N)CCCCN)[C@@H](C)O)C(=O)N[C@@H](Cc1ccc(O)cc1)C(=O)O [compound 83] (H-KHTLRLKPGQPMY-OH; N-terminus and C-terminus assumed) | 99.92
* CC[C@H](C)[C@H](NC(=O)[C@H](Cc1c[nH]c2ccccc12)NC(=O)[C@H](Cc1c[nH]cn1)NC(=O)[C@@H](N)CCCCN)C(=O)N[C@@H](CCCCN)C(=O)N[C@@H](CC(C)C)C(=O)N[C@@H](CCCCN)C(=O)N[C@@H](CC(N)=O)C(=O)NCC(=O)N[C@@H](CCC(N)=O)C(=O)N1CCC[C@H]1C(=O)N[C@@H](CCSC)C(=O)N[C@@H](Cc1ccc(O)cc1)C(=O)O [compound 81] (H-KHWIKLKNGQPMY-OH; N-terminus and C-terminus assumed) | 99.51

Entry source: patent US20250382332A1
